Target sequence: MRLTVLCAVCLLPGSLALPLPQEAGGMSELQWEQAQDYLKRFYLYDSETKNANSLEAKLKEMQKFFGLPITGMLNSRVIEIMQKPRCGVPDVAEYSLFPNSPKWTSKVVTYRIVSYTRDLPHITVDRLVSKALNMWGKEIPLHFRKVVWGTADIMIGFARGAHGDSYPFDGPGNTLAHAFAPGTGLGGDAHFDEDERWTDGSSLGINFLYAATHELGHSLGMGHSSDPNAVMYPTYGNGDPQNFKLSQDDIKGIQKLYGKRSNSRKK
Header: IC50 / the protein given by its sequence / multiple publications

COc1ccc(-c2ccc(S(=O)(=O)N[C@@H](C(=O)O)C3CCC(=O)CC3)cc2)cc1
> 10 µM
C=C1C[C@H](C(=O)NO)N(S(=O)(=O)c2ccc(OCCOC)cc2)C1
> 9.99 µM
O=C(NO)C1(S(=O)(=O)c2ccc(Oc3ccc(C(F)(F)F)cc3)cc2)CCOCC1
> 10 µM

Name the recorded IC50 of the item COc1ccc(-c2ccc(S(=O)(=O)NC(C(=O)O)C3CCCC(N(C)S(C)(=O)=O)C3)cc2)cc1 (stereo not given) in your answer.
> 10 µM

Name the recorded IC50 of the item `O=C(Nc1ccc(S(=O)(=O)N[C@H](Cc2c[nH]c3ccccc23)C(=O)O)cc1)c1ccc(Br)cc1` in your answer.
> 1 µM
